// Relative Binding Affinity KDR Receptor lookup, one value per entry
- SYSTEM_NAME: KDR receptor (Homo sapiens, UniProt P35968)
- Sequence (P35968 20-327 limits assumed): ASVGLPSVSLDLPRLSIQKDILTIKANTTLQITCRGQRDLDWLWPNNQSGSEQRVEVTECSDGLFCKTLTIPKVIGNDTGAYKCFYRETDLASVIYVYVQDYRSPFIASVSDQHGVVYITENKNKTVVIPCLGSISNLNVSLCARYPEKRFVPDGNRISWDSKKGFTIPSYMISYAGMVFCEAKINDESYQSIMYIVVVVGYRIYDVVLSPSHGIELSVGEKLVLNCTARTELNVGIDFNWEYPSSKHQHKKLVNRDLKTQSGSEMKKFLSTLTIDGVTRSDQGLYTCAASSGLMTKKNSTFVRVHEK
- EXPERIMENTAL_PROTOCOL: KDR receptor binding ELISA (inhibition of biotinylated native VEGF (8-109) binding)
- DETAILS: second figure of the cell, ratio to native VEGF (8-109)
QUANTITY: Relative Binding Affinity KDR Receptor

{"MOLECULE": "LK-VRB-25s: VEGF (1-109) variant, D63S/L66R/M18E/Y21L/Q22R/Y25S (protein) APMAEGGGQNHHEVVKFEDVLRRSSCHPIETLVDIFQEYPDEIEYIFKPSCVPLMRCGGCCNSEGRECVPTEESNITMQIMRIKPHQGQHIGEMSFLQHNKCECRPKKD", "RESULT": "4 nM/4"}
{"MOLECULE": "LK-VRB-20s: VEGF (1-109) variant, Y21L/Q22R/Y25S/D63S/G65M/L66R (protein) APMAEGGGQNHHEVVKFMDVLRRSSCHPIETLVDIFQEYPDEIEYIFKPSCVPLMRCGGCCNSEMRECVPTEESNITMQIMRIKPHQGQHIGEMSFLQHNKCECRPKKD", "RESULT": "2 nM/2"}
{"MOLECULE": "LK-VRB-12s: VEGF (1-109) variant, M18E/Q22R/D63S/G65M/L66R (protein) APMAEGGGQNHHEVVKFEDVYRRSYCHPIETLVDIFQEYPDEIEYIFKPSCVPLMRCGGCCNSEMRECVPTEESNITMQIMRIKPHQGQHIGEMSFLQHNKCECRPKKD", "RESULT": "0.4 nM/0.4"}
{"MOLECULE": "LK-VRB-16s: VEGF (1-109) variant, Q22R/Y25S/D63S/G65M/L66R (protein) APMAEGGGQNHHEVVKFMDVYRRSSCHPIETLVDIFQEYPDEIEYIFKPSCVPLMRCGGCCNSEMRECVPTEESNITMQIMRIKPHQGQHIGEMSFLQHNKCECRPKKD", "RESULT": "0.6 nM/0.6"}
{"MOLECULE": "LK-VRB-10s: VEGF (1-109) variant, Y25S/D63S/G65M/L66R (protein) APMAEGGGQNHHEVVKFMDVYQRSSCHPIETLVDIFQEYPDEIEYIFKPSCVPLMRCGGCCNSEMRECVPTEESNITMQIMRIKPHQGQHIGEMSFLQHNKCECRPKKD", "RESULT": "0.5 nM/0.5"}
{"MOLECULE": "LK-VRB-21s: VEGF (1-109) variant, D63S/M18E/Y21L/Q22R/Y25S (protein) APMAEGGGQNHHEVVKFEDVLRRSSCHPIETLVDIFQEYPDEIEYIFKPSCVPLMRCGGCCNSEGLECVPTEESNITMQIMRIKPHQGQHIGEMSFLQHNKCECRPKKD", "RESULT": "3 nM/3"}
{"MOLECULE": "LK-VRB-8s*: VEGF (1-109) variant, Y2IL/D63S/G65M/LG6R as printed (protein) APMAEGGGQNHHEVVKFMDVLQRSYCHPIETLVDIFQEYPDEIEYIFKPSCVPLMRCGGCCNSEMRECVPTEESNITMQIMRIKPHQGQHIGEMSFLQHNKCECRPKKD", "RESULT": "0.5 nM/0.5"}
{"MOLECULE": "LK-VRB-1s*: VEGF (1-109) variant, M18E/Y21L/Q22R/Y25S (protein) APMAEGGGQNHHEVVKFEDVLRRSSCHPIETLVDIFQEYPDEIEYIFKPSCVPLMRCGGCCNDEGLECVPTEESNITMQIMRIKPHQGQHIGEMSFLQHNKCECRPKKD", "RESULT": "1 nM/1"}
{"MOLECULE": "LK-VRB-11s: VEGF (1-109) variant, M18E/Y21L/D63S/G65M/L66R (protein) APMAEGGGQNHHEVVKFEDVLQRSYCHPIETLVDIFQEYPDEIEYIFKPSCVPLMRCGGCCNSEMRECVPTEESNITMQIMRIKPHQGQHIGEMSFLQHNKCECRPKKD", "RESULT": "2 nM/2"}
{"MOLECULE": "LK-VRB-17s: VEGF (1-109) variant, M18E/Y21L/Q22R/D63S/G65M/L66R (protein) APMAEGGGQNHHEVVKFEDVLRRSYCHPIETLVDIFQEYPDEIEYIFKPSCVPLMRCGGCCNSEMRECVPTEESNITMQIMRIKPHQGQHIGEMSFLQHNKCECRPKKD", "RESULT": "3 nM/3"}
{"MOLECULE": "LK-VRB-14s: VEGF (1-109) variant, Y21L/Q22R/D63S/G65M/L66R (protein) APMAEGGGQNHHEVVKFMDVLRRSYCHPIETLVDIFQEYPDEIEYIFKPSCVPLMRCGGCCNSEMRECVPTEESNITMQIMRIKPHQGQHIGEMSFLQHNKCECRPKKD", "RESULT": "0.5 nM/0.5"}
{"MOLECULE": "LK-VRB-19s: VEGF (1-109) variant, M18E/Q22R/Y25S/D63S/G65M/L66R as printed (same as 18s) (protein) APMAEGGGQNHHEVVKFEDVYRRSSCHPIETLVDIFQEYPDEIEYIFKPSCVPLMRCGGCCNSEMRECVPTEESNITMQIMRIKPHQGQHIGEMSFLQHNKCECRPKKD", "RESULT": "7 nM/7"}
